System: Pasteurella multocida CVCC399
Measurement description: in vitro susceptibility, MIC by mini broth dilution
Assay type: cell-based
Particulars: strain CVCC399
Readout kind: MIC values, Pasteurella multocida CVCC399 (ug/mi)
# value in ug/mi; strip the unit string

Reading of MIC values, Pasteurella multocida CVCC399 for CCOCCCNCC1(O)C(C)OC(OC2C(C)C(=O)OC(CC)C(C)(O)C(O)C(C)CNC(C)CC(C)(O)C(OC3OC(C)CC(N(C)C)C3O)C2C)CC1(C)OC (stereo not drawn) with Pasteurella multocida CVCC399: 0.5

Lab entry: Pasteurella multocida CVCC399 assay, compound CCCN1C[C@H](C)[C@@H](O)[C@](C)(O)[C@@H](CC)OC(=O)[C@H](C)[C@@H](O[C@H]2C[C@@](C)(OC)[C@](O)(CNc3ccnc(Cl)c3)[C@H](C)O2)[C@H](C)[C@@H](O[C@@H]2O[C@H](C)C[C@H](N(C)C)[C@H]2O)[C@](C)(O)C[C@H]1C , MIC values, Pasteurella multocida CVCC399 = 8

Entry CCC1OC(=O)C(C)C(OC2CC(C)(OC)C(O)(CNCCCNC3CCCCC3)C(C)O2)C(C)C(OC2OC(C)CC(N(C)C)C2O)C(C)(O)CC(C)NCC(C)C(O)C1(C)O (stereo not drawn) , tested on Pasteurella multocida CVCC399, has a reported MIC values, Pasteurella multocida CVCC399 of 2

Summary: CC[C@H]1OC(=O)[C@H](C)[C@@H](OC2CC(C)(OC)C(O)(CNC(C)CC(=O)O)C(C)O2)[C@H](C)[C@@H](O[C@@H]2O[C@H](C)C[C@H](N(C)C)[C@H]2O)[C@](C)(O)C[C@@H](C)NC[C@H](C)[C@@H](O)[C@]1(C)O (stereo partly drawn) , Pasteurella multocida CVCC399, MIC values, Pasteurella multocida CVCC399 = 1

Record for CCCN1C[C@H](C)[C@@H](O)[C@](C)(O)[C@@H](CC)OC(=O)[C@H](C)[C@@H](O[C@H]2C[C@@](C)(OC)[C@](O)(CNc3ccc(C)o3)[C@H](C)O2)[C@H](C)[C@@H](O[C@@H]2O[C@H](C)C[C@H](N(C)C)[C@H]2O)[C@](C)(O)C[C@H]1C under target or system Pasteurella multocida CVCC399: MIC values, Pasteurella multocida CVCC399 reported as 4

For CC[C@H]1OC(=O)[C@H](C)[C@@H](O[C@H]2C[C@@](C)(OC)[C@](O)(CNCc3cccc(N)c3)[C@H](C)O2)[C@H](C)[C@@H](O[C@@H]2O[C@H](C)C[C@H](N(C)C)[C@H]2O)[C@](C)(O)C[C@@H](C)NC[C@H](C)[C@@H](O)[C@]1(C)O on Pasteurella multocida CVCC399, measured MIC values, Pasteurella multocida CVCC399 was 1

Item CCC1OC(=O)C(C)C(OC2CC(C)(OC)C(O)(CNc3ccccc3)C(C)O2)C(C)C(OC2OC(C)CC(N(C)C)C2O)C(C)(O)CC(C)NCC(C)C(O)C1(C)O (stereo not drawn) ; assay system Pasteurella multocida CVCC399; MIC values, Pasteurella multocida CVCC399 reported as 1

The recorded MIC values, Pasteurella multocida CVCC399 with Pasteurella multocida CVCC399 for CCCN1C[C@H](C)[C@@H](O)[C@](C)(O)[C@@H](CC)OC(=O)[C@H](C)[C@@H](O[C@H]2C[C@@](C)(OC)[C@](O)(CNCCOCCO)[C@H](C)O2)[C@H](C)[C@@H](O[C@@H]2O[C@H](C)C[C@H](N(C)C)[C@H]2O)[C@](C)(O)C[C@H]1C was 1

MIC values, Pasteurella multocida CVCC399 for Pasteurella multocida CVCC399 with input CCCN1CC(C)C(O)C(C)(O)C(CC)OC(=O)C(C)C(OC2CC(C)(OC)C(O)(CNCCOS(=O)(=O)O)C(C)O2)C(C)C(OC2OC(C)CC(N(C)C)C2O)C(C)(O)CC1C (stereo not drawn) equals 1

* * *

For each record, write down the corresponding MIC values, Pasteurella multocida CVCC399.
Test system: Pasteurella multocida CVCC399
Measurement description: in vitro susceptibility, MIC by mini broth dilution
Format: cell-based
Particulars: strain CVCC399
Lab book: enter the figure in ug/mi, no units written.

The compound CCCN1C[C@H](C)[C@@H](O)[C@](C)(O)[C@@H](CC)OC(=O)[C@H](C)[C@@H](O[C@H]2C[C@@](C)(OC)[C@](O)(CNCc3ccc(C(F)(F)F)cc3)[C@H](C)O2)[C@H](C)[C@@H](O[C@@H]2O[C@H](C)C[C@H](N(C)C)[C@H]2O)[C@](C)(O)C[C@H]1C showed MIC values, Pasteurella multocida CVCC399 equal to 1

Reported MIC values, Pasteurella multocida CVCC399 ( CCCN1C[C@H](C)[C@@H](O)[C@](C)(O)[C@@H](CC)OC(=O)[C@H](C)[C@@H](O[C@H]2C[C@@](C)(OC)[C@](O)(CNCCCCl)[C@H](C)O2)[C@H](C)[C@@H](O[C@@H]2O[C@H](C)C[C@H](N(C)C)[C@H]2O)[C@](C)(O)C[C@H]1C ) = 0.5

Form: compound = CCCN1C[C@H](C)[C@@H](O)[C@](C)(O)[C@@H](CC)OC(=O)[C@H](C)[C@@H](O[C@H]2C[C@@](C)(OC)[C@](O)(CNc3cc(OC)cc(OC)c3)[C@H](C)O2)[C@H](C)[C@@H](O[C@@H]2O[C@H](C)C[C@H](N(C)C)[C@H]2O)[C@](C)(O)C[C@H]1C ; MIC values, Pasteurella multocida CVCC399 = 2

MIC values, Pasteurella multocida CVCC399 for CCCN1C[C@H](C)[C@@H](O)[C@](C)(O)[C@@H](CC)OC(=O)[C@H](C)[C@@H](O[C@H]2C[C@@](C)(OC)[C@](O)(CNc3cc(Cl)ccc3C)[C@H](C)O2)[C@H](C)[C@@H](O[C@@H]2O[C@H](C)C[C@H](N(C)C)[C@H]2O)[C@](C)(O)C[C@H]1C is 8

* * *

Tested on: Haemophilus parasuis
Measurement description: in vitro susceptibility, MIC by mini broth dilution
Format: cell-based
Protocol: in vitro tests of susceptibility of the compounds according to the present disclosure against bacterial strains commonly used in laboratories. […] The MICs (minimum inhibitory concentration) of the medicaments prepared according to the examples on the following bacterial strains were measured through mini broth dilution technique. […] The dilution ratio was recorded, and the bacterial liquid for the tests was diluted according to the recorded dilution ratio. […]
Would you mind telling me the reported MIC values, Haemophilus parasuis of each entry?
Answer format: numeric, ug/mi implied, no suffix.

// molecule C#CCNC[C@]1(O)[C@H](C)O[C@@H](O[C@H]2[C@H](C)[C@@H](O[C@@H]3O[C@H](C)C[C@H](N(C)C)[C@H]3O)[C@](C)(O)C[C@@H](C)NC[C@H](C)[C@@H](O)[C@](C)(O)[C@@H](CC)OC(=O)[C@@H]2C)C[C@@]1(C)OC , assay Haemophilus parasuis, MIC values, Haemophilus parasuis value: 0.5

Reading of MIC values, Haemophilus parasuis for CCCN1C[C@H](C)[C@@H](O)[C@](C)(O)[C@@H](CC)OC(=O)[C@H](C)[C@@H](O[C@H]2C[C@@](C)(OC)[C@](O)(CNC(C)CC(=O)O)[C@H](C)O2)[C@H](C)[C@@H](O[C@@H]2O[C@H](C)C[C@H](N(C)C)[C@H]2O)[C@](C)(O)C[C@H]1C (stereo partly shown) with Haemophilus parasuis: 0.5

Record CCCN1C[C@H](C)[C@@H](O)[C@](C)(O)[C@@H](CC)OC(=O)[C@H](C)[C@@H](O[C@H]2C[C@@](C)(OC)[C@](O)(CNCc3cccc(OC)c3)[C@H](C)O2)[C@H](C)[C@@H](O[C@@H]2O[C@H](C)C[C@H](N(C)C)[C@H]2O)[C@](C)(O)C[C@H]1C [syzx-127] ; system Haemophilus parasuis; MIC values, Haemophilus parasuis = 1

Here CCCN1C[C@H](C)[C@@H](O)[C@](C)(O)[C@@H](CC)OC(=O)[C@H](C)[C@@H](O[C@H]2C[C@@](C)(OC)[C@](O)(CNCc3ccc(F)cc3)[C@H](C)O2)[C@H](C)[C@@H](O[C@@H]2O[C@H](C)C[C@H](N(C)C)[C@H]2O)[C@](C)(O)C[C@H]1C was tested on Haemophilus parasuis, and its MIC values, Haemophilus parasuis came to 0.25

* * *

Tested on: Pasteurella multocida CVCC399
Measurement description: in vitro susceptibility, MIC by mini broth dilution
Assay type: cell-based
Particulars: strain CVCC399
Can you tell me MIC values, Pasteurella multocida CVCC399 for the items I'm about to list?
Write the quantity with the unit trailing the number.

# compound CCCN1C[C@H](C)[C@@H](O)[C@](C)(O)[C@@H](CC)OC(=O)[C@H](C)[C@@H](O[C@H]2C[C@@](C)(OC)[C@](O)(CNc3ccc(Cl)nn3)[C@H](C)O2)[C@H](C)[C@@H](O[C@@H]2O[C@H](C)C[C@H](N(C)C)[C@H]2O)[C@](C)(O)C[C@H]1C [syzx-132] ; its MIC values, Pasteurella multocida CVCC399 = 2 ug/mi

Record CCCN1C[C@H](C)[C@@H](O)[C@](C)(O)[C@@H](CC)OC(=O)[C@H](C)[C@@H](O[C@H]2C[C@@](C)(OC)[C@](O)(CNc3cccc(Cl)c3)[C@H](C)O2)[C@H](C)[C@@H](O[C@@H]2O[C@H](C)C[C@H](N(C)C)[C@H]2O)[C@](C)(O)C[C@H]1C [syzx-113] , field MIC values, Pasteurella multocida CVCC399: 1 ug/mi

Lab book: MIC values, Pasteurella multocida CVCC399 of CC[C@H]1OC(=O)[C@H](C)[C@@H](O[C@H]2C[C@@](C)(OC)[C@](O)(CNCc3ccc(Cl)cc3)[C@H](C)O2)[C@H](C)[C@@H](O[C@@H]2O[C@H](C)C[C@H](N(C)C)[C@H]2O)[C@](C)(O)C[C@@H](C)NC[C@H](C)[C@@H](O)[C@]1(C)O [syzx-20] noted as 0.25 ug/mi

The compound identified as CCCN1C[C@H](C)[C@@H](O)[C@](C)(O)[C@@H](CC)OC(=O)[C@H](C)[C@@H](O[C@H]2C[C@@](C)(OC)[C@](O)(CN(C)CCO)[C@H](C)O2)[C@H](C)[C@@H](O[C@@H]2O[C@H](C)C[C@H](N(C)C)[C@H]2O)[C@](C)(O)C[C@H]1C [syzx-126] registered its MIC values, Pasteurella multocida CVCC399 at 2 ug/mi
